target: Muscarinic acetylcholine receptor M5 (Homo sapiens) (UniProt P08912); assay: human M5 muscarinic receptor positive allosteric modulators, primary screen, CHO-K1 cells, Fluo-8 calcium fluorescence (AID 624038); conditions: CHO-K1 hM5, Fluo-8 calcium, ACh EC20 PAM; at 3 µM; active compounds read high; 0% = ACh EC20, 100% = ACh EC100
Sequence (P08912 whole entry, looked up): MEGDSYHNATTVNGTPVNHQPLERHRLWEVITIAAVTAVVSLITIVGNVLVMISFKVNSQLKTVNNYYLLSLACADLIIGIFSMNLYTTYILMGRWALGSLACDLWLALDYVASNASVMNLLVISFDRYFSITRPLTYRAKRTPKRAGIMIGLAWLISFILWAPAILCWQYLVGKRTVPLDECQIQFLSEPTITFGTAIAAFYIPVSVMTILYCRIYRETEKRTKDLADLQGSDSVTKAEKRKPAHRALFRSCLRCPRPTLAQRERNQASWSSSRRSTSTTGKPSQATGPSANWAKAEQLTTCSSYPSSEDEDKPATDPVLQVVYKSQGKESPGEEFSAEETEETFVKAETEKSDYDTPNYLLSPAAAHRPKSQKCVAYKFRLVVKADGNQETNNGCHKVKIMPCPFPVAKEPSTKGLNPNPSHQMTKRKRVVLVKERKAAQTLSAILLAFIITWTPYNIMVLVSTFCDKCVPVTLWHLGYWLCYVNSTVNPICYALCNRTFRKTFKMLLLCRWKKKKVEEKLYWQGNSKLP
Hit rate of the full screen: of about 360,000 compounds, about 1,100 (0.31%) were called active. The sample as a whole holds a higher share of actives than the screen did.
Parameter Measured: activation (%)

{"columns": ["Compound", "Assay Target", "Parameter Measured", "Units", "Readout Value"],
 "data": [
  ["COc1cccc(OC)c1C(=O)Nc1ccc(N2CCCCC2)cc1", "Muscarinic acetylcholine receptor M5 (Homo sapiens) (UniProt P08912)", "activation", "%", 20.9],
  ["Nc1c(-c2ccc(F)cc2)cnn1C1CCS(=O)(=O)C1 (configuration not stated)", "Muscarinic acetylcholine receptor M5 (Homo sapiens) (UniProt P08912)", "activation", "%", 0.13],
  ["COc1ccc(N2CCN(CCCNC(=O)C3CCN(S(=O)(=O)N4CCOCC4)CC3)CC2)cc1", "Muscarinic acetylcholine receptor M5 (Homo sapiens) (UniProt P08912)", "activation", "%", -0.18],
  ["Cn1nccc1NC(=O)CC(CC(=O)O)c1ccccc1 (configuration not stated)", "Muscarinic acetylcholine receptor M5 (Homo sapiens) (UniProt P08912)", "activation", "%", -3.88],
  ["CCCCNC(=O)OC1CC2CC1[C@H]1CCCCN1C2=O (some centres not stated)", "Muscarinic acetylcholine receptor M5 (Homo sapiens) (UniProt P08912)", "activation", "%", 0.25],
  ["O=C(Cc1ccccc1Cl)N1CCN(c2ccccn2)CC1", "Muscarinic acetylcholine receptor M5 (Homo sapiens) (UniProt P08912)", "activation", "%", -0.15],
  ["CCOc1ccc(C(=O)CCC(=O)Nc2ccncc2)cc1", "Muscarinic acetylcholine receptor M5 (Homo sapiens) (UniProt P08912)", "activation", "%", -11.9],
  ["CCN(Cc1ccccc1)S(=O)(=O)c1cc2c3c(c1)CCN3C(=O)CC2", "Muscarinic acetylcholine receptor M5 (Homo sapiens) (UniProt P08912)", "activation", "%", 3.77],
  ["CC(C)(C)OC(=O)C[C@@H]1C/C=C\\C[C@H](CC(=O)N[C@@H](CO)Cc2ccccc2)C(=O)N[C@H](Cc2ccccc2)COC1=O", "Muscarinic acetylcholine receptor M5 (Homo sapiens) (UniProt P08912)", "activation", "%", -0.44],
  ["CC(=O)c1cnn(-c2cc(Oc3ccc(F)cc3)ncn2)c1C", "Muscarinic acetylcholine receptor M5 (Homo sapiens) (UniProt P08912)", "activation", "%", 0.64],
  ["C=CCN1C(=O)C(O)(CC(=O)c2ccccn2)c2ccccc21 (configuration not stated)", "Muscarinic acetylcholine receptor M5 (Homo sapiens) (UniProt P08912)", "activation", "%", 0.57],
  ["CCOc1ccc(NC(=O)CCC(=O)NNC(=O)NC2CCCCC2)cc1", "Muscarinic acetylcholine receptor M5 (Homo sapiens) (UniProt P08912)", "activation", "%", 21.3],
  ["C[C@H]1CC[C@]2(O[C@@H](CCO)C[C@@H](O)[C@@H]2O)O1", "Muscarinic acetylcholine receptor M5 (Homo sapiens) (UniProt P08912)", "activation", "%", 5.16],
  ["Cc1ccc2oc(=O)c3cnn(CC(=O)N4CCN(c5ccccn5)CC4)c3c2c1", "Muscarinic acetylcholine receptor M5 (Homo sapiens) (UniProt P08912)", "activation", "%", -15.1],
  ["CCCC(CNC(=O)COC(=O)C1=NNC(=O)CC1)c1ccc(Cl)cc1Cl (configuration not stated)", "Muscarinic acetylcholine receptor M5 (Homo sapiens) (UniProt P08912)", "activation", "%", 8.77],
  ["CCCn1c(O)c(CN2CCCC(C)C2)c(C)c(C#N)c1=O (configuration not stated)", "Muscarinic acetylcholine receptor M5 (Homo sapiens) (UniProt P08912)", "activation", "%", -2.92],
  ["C=CCN1C(=O)C(O)(CC(=O)c2ccc(Cl)cc2)c2ccccc21 (configuration not stated)", "Muscarinic acetylcholine receptor M5 (Homo sapiens) (UniProt P08912)", "activation", "%", 12.2],
  ["CCOc1ccccc1NC(=O)NC1CCCCCCC1", "Muscarinic acetylcholine receptor M5 (Homo sapiens) (UniProt P08912)", "activation", "%", -0.6],
  ["O=C(CC1(O)C(=O)N(CN2CCOCC2)c2ccccc21)c1ccccc1 (configuration not stated)", "Muscarinic acetylcholine receptor M5 (Homo sapiens) (UniProt P08912)", "activation", "%", 37.4],
  ["O=C1COc2ccc(C(=O)COC(=O)c3ccccc3Cl)cc2N1", "Muscarinic acetylcholine receptor M5 (Homo sapiens) (UniProt P08912)", "activation", "%", -8.98],
  ["COc1ccc(Br)cc1CN1CCN(C(=O)c2cccc(OC)c2OC)CC1", "Muscarinic acetylcholine receptor M5 (Homo sapiens) (UniProt P08912)", "activation", "%", 2.23],
  ["C[C@@H]1CC[C@]2(O[C@@H](CCO)C[C@H](O)[C@H]2O)O1", "Muscarinic acetylcholine receptor M5 (Homo sapiens) (UniProt P08912)", "activation", "%", 3.31]
]}
